tested on: SR leukemia; assay: NCI-60 one-dose screen, 48 h; settings: 10 µM unless noted
Compounds without any hit were thinned out: in the full panel of roughly 83,000, 20% have a hit. Active and inactive are the calls of the source. How the source made its calls: active means growth percent below 10; inactive means the rest.
Could you please pick one outcome from this set? true (1) = active, false (0) = inactive

Exam item: Outcome logged for COc1cccc(NC(=O)c2sc3nc(C)c(C(O)c4ccccc4)cc3c2N)c1 (stereo unspecified) in this assay:
Marked response: true (1)

Exam item: Check `S=c1nc(CS)[nH]c2ccccc12` too.
Marked response: false (0)

Exam item: Same for `O=C1/C(=C/c2cn(-c3ccccc3)nc2-c2ccccc2)SC(=S)N1c1ccccc1`
Marked response: false (0)

Exam item: Try this compound next: `COc1ccc(-c2cc(-c3cccc(Cl)c3)c(C#N)c(=O)[nH]2)c(OC)c1`
Marked response: false (0)

Exam item: Also, `O=C(CN1C(=O)S/C(=C\C(Cl)=C\c2ccccc2)C1=O)NCCCn1ccnc1` please.
Marked response: true (1)

Next:
Exam item: Query: recorded result category for `COCCn1cc(-c2nc(-c3cn(CCOC)c4ncccc34)cs2)c2ccccc21` in this test
Marked response: false (0)

Exam item: What do we get for `Brc1ccc(/C=C(/C2=NCCN2)n2ccc3ccccc32)cc1` ?
Marked response: false (0)

Exam item: Same thing, different compound: `CCNC(=O)Nc1ncccc1OCc1ccc(F)cc1`
Marked response: false (0)

---

system: OVCAR-4 ovarian; experiment: NCI-60 one-dose screen, 48 h; settings: 10 µM unless noted
About 83,000 compounds went through this panel and 20% of them were active in at least one assay; those are over-represented in the sample as a whole. The source made the active and inactive calls. Rule for the calls: active = growth percent below 10; inactive = the rest.
Please reply with one of these outcomes: 1 = active, 0 = inactive

Here are 6 compounds together with their reported answers.
Exam item: For this compound, state the assay outcome: `CCCCCCCCCCCCC[C@H](O)C[C@H](O)[C@H](C)N`
Marked response: 0

Exam item: // query: `O=C1/C(=C/c2ccc(-c3cccc(C(F)(F)F)c3)o2)SC(=S)N1CCc1ccc(O)cc1`
Marked response: 0

Exam item: # iterate: `COc1ccc(-c2cc(-c3cccc(Cl)c3)c(C#N)c(=O)[nH]2)c(OC)c1`
Marked response: 0

Exam item: Subsequent entry: `CN1CCN(Cc2ccc(NC(=O)c3cccc(C#Cc4c(N)ncc5ccc(F)cc45)c3)cc2C(F)(F)F)CC1`
Marked response: 1

Exam item: Subsequent entry: `CCOC(=O)c1nnn(Cc2cc(=O)oc3c2ccc2ccccc23)c1C`
Marked response: 0

Exam item: Now give it for `S=c1nc(CS)[nH]c2ccccc12` too.
Marked response: 0

Further cases:
Exam item: What is the recorded call for this compound in the test? `O=[N+]([O-])c1cc(C(F)(F)F)ccc1Sc1ccc(C(F)(F)F)cc1[N+](=O)[O-]`
Marked response: 0

Exam item: Now consider `CN1Cn2c(ccc2C(F)(F)F)C(=O)CS1(=O)=O` .
Marked response: 0

Exam item: Entry to check: `CN(C)CCCn1c2nc(=O)[nH]c(=O)c-2nc2cc(Cl)c(Cl)cc21`
Marked response: 0

Exam item: Input `C=C1C(=O)O[C@H]2[C@H]1CC/C(COC(=O)NCCCCNC(=O)OC/C1=C/CC[C@@]3(C)O[C@H]3[C@H]3OC(=O)C(=C)[C@@H]3CC1)=C\CC[C@@]1(C)O[C@@H]21`
Marked response: 0

Exam item: Input CC1=CC=C(NC(=O)/C=C/c2ccccc2)CC1Nc1nccc(-c2cccnc2)n1 (stereo not given)
Marked response: 0
